- assay remarks: In vivo pharmacokinetic analysis
- run parameters: ICR, mouse; mice, 5 mg/kg, oral gavage in 0.5% CMC, plasma
Binary classification by Cmax, with 500 ng/mL as an inclusive lower bound for rule met; all other cases are rule not met.

Sample answers from the record:
Query block: Could you tell me if the measured Cmax of O=C(/C=C\n1cnc(-c2cc(C(F)(F)F)cc(C(F)(F)F)c2)n1)NN1CCOCC1=O reaches 500 ng/mL or more?
Result block: rule met

Query block: Could you tell me if the measured Cmax of O=C(/C=C\n1cnc(-c2cc(C(F)(F)F)cc(C(F)(F)F)c2)n1)NNc1cnccn1 [KPT-330, Selinexor, reference compound] reaches 500 ng/mL or more?
Result block: rule not met

Query block: Could you tell me if the measured Cmax of CC1=C(C)C(=O)N(NC(=O)/C=C\n2cnc(-c3cc(C(F)(F)F)cc(C(F)(F)F)c3)n2)C1 reaches 500 ng/mL or more?
Result block: rule met

More entries:
Query block: Could you tell me if the measured Cmax of O=C(/C=C\n1cnc(-c2cc(C(F)(F)F)cc(C(F)(F)F)c2)n1)NN1CCC2(CC2)C1=O reaches 500 ng/mL or more?
Result block: rule not met
